# TESTED SYSTEM: HA H1 A/California/07/09 (Influenza A virus (A/California/07/2009(H1N1)))
# ASSAY: biochemical
# RUN CONDITIONS: Competition binding (AlphaLISA), pIC50 H1 A/California/07/09
QUANTITY: pIC50
Here pIC50 is given on a logarithmic scale as minus log10 of the concentration in mol/L.

Previously resolved entries follow.
* COC(=O)[C@H](c1ccccc1)N1CCN(C(=O)c2cccc(-c3nc4cc(OC)ccc4o3)c2)CC1 [Example 100] | 6.30
* COC(=O)C(c1ccccc1)N1CCN(C(=O)c2cccc(-c3nc4cc(N)ccc4o3)c2)CC1 (stereo not shown) [Example 10] | 7.60
* Cc1nnc(C(c2ccccc2)N2CCN(C(=O)c3cccc(-c4nc5cc(NS(C)(=O)=O)ccc5o4)c3)CC2)o1 (stereo not shown) [Example 73] | 7.80

--- query ---
*Q* Which measured pIC50 value corresponds to Cc1nnc(C(c2ccccc2)N2CCN(C(=O)[C@H]3CCCN(c4nc5cc(C(F)(F)F)ccc5o4)C3)CC2)o1 (stereo partly shown) [Example 110] ?
*A* 6.40
